Experiment: NCI Yeast Anticancer Drug Screen. Data for the cln2 rad14 strain (AID 165);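 note: 0% = growth equal to vehicle treated cultures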
Settings: S. cerevisiae cln2 rad14 strain, at 50.0 µM, hits give high values
Compounds without any hit were thinned out: in the full panel of roughly 79,000, 15% have a hit.
quantity: growth inhibition (%)

compound="CCCCC(CC)CSC[N+](C)(CC)CC (stereo unspecified)" quantity="growth inhibition" experimental_value=1.5
compound=O=Cc1cc2c(cc1-c1c(C=O)ccc3c1OCO3)OCO2 quantity="growth inhibition" experimental_value=18.6
compound=O=C1c2ccccc2C(=O)N1[C@@H](Cc1ccccc1)C(=O)n1cccc1CO quantity="growth inhibition" experimental_value=25.5
compound=Cc1cc(CN2CCCCC2)c(O)c(CN2CCCCC2)c1 quantity="growth inhibition" experimental_value=-0.2
compound=CO/C(Cc1cc(O)cc(O)c1)=N\N quantity="growth inhibition" experimental_value=-5.65
compound="O=[N+]([O-])c1ccc(C2=NOC3COC4C=CC=CC4OCC23)cc1 (stereo unspecified)" quantity="growth inhibition" experimental_value=-2.55
compound=CN(C)NC1=NS(=O)(=O)c2cc3c(cc2S1)N(N(C)C)C(=O)c1cc2c(cc1N(N(C)C)C3=O)SC(NN(C)C)=NS2(=O)=O quantity="growth inhibition" experimental_value=2.35
compound=Cc1cc(O)c(C)c(C)c1C quantity="growth inhibition" experimental_value=2.1
compound=Cc1cccc(OCCCCCl)c1 quantity="growth inhibition" experimental_value=10.4
compound="C=C1C(=O)OC2/C=C(\\C)CC(O)/C=C(/C)CC(OC(=O)C(O)(CO)C(C)S)C12 (stereo unspecified)" quantity="growth inhibition" experimental_value=3
compound=CC(=O)NC(=O)NC1=NCCC(=O)N1CCc1c[nH]c2ccccc12 quantity="growth inhibition" experimental_value=6.25
compound=NC(=S)SC1=NNC2(C(=O)N1)c1ccccc1-c1ccccc12 quantity="growth inhibition" experimental_value=-6.7
compound=c1ccc2c(c1)cc1n2CCc2c-1[nH]c1ccccc21 quantity="growth inhibition" experimental_value=18.1
compound=BrCCCCCBr quantity="growth inhibition" experimental_value=-48.5
compound=CCOC(=O)NC(Nc1ccc(C(=O)O)cc1)(C(F)(F)F)C(F)(F)F quantity="growth inhibition" experimental_value=18.6
compound=O=[N+]([O-])c1ccccc1Sc1ccc2c3c(cccc13)CN(CCCO)C2 quantity="growth inhibition" experimental_value=6.8
compound=CC(=O)CCC(=O)CC(=O)CCC(=O)Nc1cc(Cl)ccc1Cl quantity="growth inhibition" experimental_value=31.2
compound="Cc1cc2nc3c(C(OC4OC(CO)C(O)C(O)C4O)C(O)CO)nn(-c4ccccc4)c3nc2cc1C (stereo unspecified)" quantity="growth inhibition" experimental_value=0.25
compound="CC1O[C@@]2(CC[C@H]3[C@@H]4CCC5=CC(=O)CC[C@]5(C)[C@H]4CC[C@@]32C)C1=O (stereo partly specified)" quantity="growth inhibition" experimental_value=-16.8
compound=O=C1C(c2ccccc2)=C(c2ccccc2)C(c2ccc(Cc3ccc(C4=C(c5ccccc5)C(=O)C(c5ccccc5)=C4c4ccccc4)cc3)cc2)=C1c1ccccc1 quantity="growth inhibition" experimental_value=14.6
compound="OC1C=COC2COC(c3ccccc3)OC12 (stereo unspecified)" quantity="growth inhibition" experimental_value=-21.1
compound=CN(C)Cc1cc(Cl)c(O)c(CN(C)C)c1 quantity="growth inhibition" experimental_value=23.7
compound=Cn1c(CBr)nc2c1C(=O)c1nc[nH]c(=O)c1C2=O quantity="growth inhibition" experimental_value=11.8
compound="COC(=O)C1(CC(=O)c2ccc(Cl)cc2Cl)NC(=S)NC(=O)C1C#N (stereo unspecified)" quantity="growth inhibition" experimental_value=16.2
compound=O=C(Nc1ccc(Cl)cc1)Nc1nnc2nc(CC(=O)c3ccccc3)c(=O)[nH]n12 quantity="growth inhibition" experimental_value=-19
compound=CCN(CC)C(=O)N1C=CC(C)C=C1 quantity="growth inhibition" experimental_value=-43.1
compound=Nc1nc2c(N)cc(C(F)(F)F)cc2nc1-c1ccccc1 quantity="growth inhibition" experimental_value=7.95
compound="CC1CC=CCC1C(=O)OC/C=C/COC(=O)C1CC=CCC1C (stereo unspecified)" quantity="growth inhibition" experimental_value=-9.9
compound="COc1ccc(NC(=O)C(=O)C2NC(=S)NC2=O)c(OC)c1 (stereo unspecified)" quantity="growth inhibition" experimental_value=15.3
compound="CCS(=O)CCCN1CCc2ccccc2C1 (stereo unspecified)" quantity="growth inhibition" experimental_value=-33
compound="CC(=O)OC1C(COC(=O)c2ccccc2)OC(Nc2ncc(-c3ccc(Br)cc3)s2)C(OC(=O)c2ccccc2)C1OC(=O)c1ccccc1 (stereo unspecified)" quantity="growth inhibition" experimental_value=31.9
compound="OC12c3ccccc3C1(N1CCOCC1)CCCCC21OCCCO1 (stereo unspecified)" quantity="growth inhibition" experimental_value=10.1
compound=O[C@@H]1C=C(c2ccccc2)[C@H](c2ccccc2)C1 quantity="growth inhibition" experimental_value=-7.9
compound="COC1C(O)CC(OC2CC(OC3CC(O[C@@H]4C(=O)c5c(cc6cc(OC7CC(OC8CC(O)C(O)C(C)O8)C(O)C(C)O7)c(C)c(O)c6c5O)C[C@H]4[C@H](OC)C(=O)[C@@H](O)[C@@H](C)O)OC(C)C3O)OC(C)C2O)OC1C (stereo partly specified)" quantity="growth inhibition" experimental_value=43.7
compound=C/C(CC(=O)Nc1cccc(Cl)c1C)=N\N=C(N)N quantity="growth inhibition" experimental_value=19.4
compound=COc1ccc2oc(C(=O)O)cc2c1 quantity="growth inhibition" experimental_value=-25
compound=CCC(C)(C)c1ccc(OCCO)cc1 quantity="growth inhibition" experimental_value=-12.9
compound=CC1=C(C(=O)Nc2cccc3c2C(=O)NC3=O)CC(C(=O)Nc2cccc3c2C(=O)NC3=O)=C(C)N1 quantity="growth inhibition" experimental_value=-25.8
compound="CCSC1OC(C(COC(C)=O)OC(C)=O)C(OC(C)=O)C1NC(=O)OCc1ccccc1 (stereo unspecified)" quantity="growth inhibition" experimental_value=7.2
compound=CC(C)C1C(=O)CCCC1=O quantity="growth inhibition" experimental_value=-12.9
compound=COc1cccc(NCNC2Nc3ccccc3N2)c1 quantity="growth inhibition" experimental_value=-23.4
